TEST: Solubility screening of Formula (I) in crystallization solvents at RT and 50° C. (TABLE 3)
Type: physicochemical
CONDITION_PARAMETERS: n-butanol (n-BuOH), organic solvent or mixture, thermodynamic from solid, n-BuOH; RT; read-out: Solubility Range
READOUT_NAME: solubility

MOLECULE | READOUT_NAME | ASSAY_VALUE
CC[C@H](C)C(=O)N1CCC(NC(=O)Nc2ccc(OC(F)(F)F)c(F)c2)CC1 | solubility | ≥ 42.6 mg/mL

###

TEST: Solubility screening of Formula (I) in crystallization solvents at RT and 50° C. (TABLE 3)
Assay type: physicochemical
CONDITION_PARAMETERS: 2-methyltetrahydrofuran (2-MeTHF), organic solvent or mixture, thermodynamic from solid, 2-MeTHF; RT; read-out: Solubility Range

COMPOUND | solubility
CC[C@H](C)C(=O)N1CCC(NC(=O)Nc2ccc(OC(F)(F)F)c(F)c2)CC1 [Formula (I)] | 25.2 to 50.4 mg/mL

###

TEST: Equilibrium-solubility screening in solvents and excipients
Assay type: physicochemical
CONDITION_PARAMETERS: Soybean Oil, oil or lipid, thermodynamic from solid

COMPOUND | solubility thermodynamic at 24 h
CC[C@H](C)C(=O)N1CCC(NC(=O)Nc2ccc(OC(F)(F)F)c(F)c2)CC1 [Form D] | < 100 µg/mL

###

TEST: Solubility screening of Formula (I) in crystallization solvents at RT and 50° C. (TABLE 3)
Format: physicochemical
CONDITION_PARAMETERS: ethanol, organic solvent or mixture, thermodynamic from solid, EtOH; RT; read-out: Nominal Solubility

MOLECULE | UNIT_SYMBOL | solubility
CC[C@H](C)C(=O)N1CCC(NC(=O)Nc2ccc(OC(F)(F)F)c(F)c2)CC1 | mg/mL | 41.2

###

TEST: Solubility screening of Formula (I) in crystallization solvents at RT and 50° C. (TABLE 3)
Type: physicochemical
CONDITION_PARAMETERS: water, 50 °C, water, thermodynamic from solid, Water; 50° C.; read-out: Nominal Solubility
READOUT_NAME: solubility

MOLECULE | ASSAY_VALUE
CC[C@H](C)C(=O)N1CCC(NC(=O)Nc2ccc(OC(F)(F)F)c(F)c2)CC1 [Formula (I)] | < 1360 µg/mL

###

TEST: Solubility of Form C in binary solvent systems (TABLE 22)
Assay type: physicochemical
CONDITION_PARAMETERS: organic solvent or mixture; MEK, ratio of n-heptane to primary 3.4 (3rd test point)

COMPOUND | solubility, µg/mL
CC[C@H](C)C(=O)N1CCC(NC(=O)Nc2ccc(OC(F)(F)F)c(F)c2)CC1 [Form C] | 4000

###

TEST: Solubility screening of Formula (I) in crystallization solvents at RT and 50° C. (TABLE 3)
Format: physicochemical
CONDITION_PARAMETERS: DMSO, organic solvent or mixture, thermodynamic from solid, DMSO; RT; read-out: Solubility Range
READOUT_NAME: solubility

MOLECULE | ASSAY_VALUE
CC[C@H](C)C(=O)N1CCC(NC(=O)Nc2ccc(OC(F)(F)F)c(F)c2)CC1 | ≥ 47.8 mg/mL

###

TEST: Equilibrium-solubility screening in solvents and excipients
Type: physicochemical
CONDITION_PARAMETERS: PEG 300, 50%, aqueous with cosolvent or surfactant or cyclodextrin, thermodynamic from solid

COMPOUND | solubility thermodynamic at 24 h / µg/mL
CC[C@H](C)C(=O)N1CCC(NC(=O)Nc2ccc(OC(F)(F)F)c(F)c2)CC1 [Form C] | 800
